- Test system: Sam68 (KHDRBS1)
- Protocol summary: Sam68 small-molecule binders, primary screen, biochemical, small-molecule microarray, 635 nm fluorescence (AID 1125);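 note: score merges 667 nm channel intensity with signal to noise over triplicate slides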
- Condition description: small-molecule microarray binding, higher = more signal
Endpoint: composite z-score

{"columns": ["Molecule", "Readout number"],
 "data": [
  ["Cc1ccc(C(C)CC(O)C2C=CC3C(=O)N(c4ccccc4)C(=O)C3N2Nc2ccc([N+](=O)[O-])cc2)o1 (centres undefined)", 1.32],
  ["COc1ccc(C(=O)Nc2ccc(CN3C(=O)[C@@]4(O[C@@H](CCO)[C@H]([Si](C)(C)c5ccc(OC)cc5)[C@H]4C)c4ccccc43)cc2)cc1", 1.3],
  ["[N-]=[N+]=NCc1ccccc1C[C@@]1(C(=O)NCC(O)CO)N=C(c2ccc(OCCCO)cc2)O[C@@H]1c1ccccc1N=[N+]=[N-] (some centres undefined)", 1.31],
  ["COCCCN1C(=O)[C@@]2(Cc3ccccc31)c1ccccc1C(=O)N(Cc1ccccc1C(F)(F)F)[C@H]2c1ccc(CO)cc1", 1]
]}
